Molecular target: AhR (Homo sapiens)
Construct: host or cells: HepG2
Sequence (P35869 11-848): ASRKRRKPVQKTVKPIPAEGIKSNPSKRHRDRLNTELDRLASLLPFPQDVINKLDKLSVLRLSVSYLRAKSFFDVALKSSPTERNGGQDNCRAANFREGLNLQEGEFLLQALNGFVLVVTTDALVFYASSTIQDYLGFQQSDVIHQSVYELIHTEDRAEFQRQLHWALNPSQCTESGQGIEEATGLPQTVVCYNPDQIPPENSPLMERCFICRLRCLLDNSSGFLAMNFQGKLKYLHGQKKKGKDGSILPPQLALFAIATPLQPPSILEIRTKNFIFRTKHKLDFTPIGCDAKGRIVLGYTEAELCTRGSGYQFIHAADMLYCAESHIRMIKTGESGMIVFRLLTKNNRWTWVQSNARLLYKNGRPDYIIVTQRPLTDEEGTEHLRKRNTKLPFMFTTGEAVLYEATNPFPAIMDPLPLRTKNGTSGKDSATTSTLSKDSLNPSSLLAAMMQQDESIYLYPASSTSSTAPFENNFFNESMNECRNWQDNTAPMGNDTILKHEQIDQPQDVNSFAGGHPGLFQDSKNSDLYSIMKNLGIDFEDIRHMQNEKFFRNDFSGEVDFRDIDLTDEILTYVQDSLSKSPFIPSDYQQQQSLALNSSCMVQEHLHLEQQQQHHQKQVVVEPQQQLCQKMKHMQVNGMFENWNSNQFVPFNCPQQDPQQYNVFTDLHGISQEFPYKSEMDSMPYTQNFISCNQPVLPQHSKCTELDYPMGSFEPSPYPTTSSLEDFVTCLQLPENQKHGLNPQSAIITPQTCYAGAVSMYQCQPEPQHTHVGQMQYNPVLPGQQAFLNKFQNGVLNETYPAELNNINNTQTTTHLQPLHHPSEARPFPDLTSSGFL
Assay: In vitro assay 1: XRE-luciferase reporter assay, antagonism in human cell line (HepG2)
Assay type: cell-based
Settings: HepG2 XRE-luciferase, cells treated with kynurenine 50 μM (*), 6 hours; read-out: Assay 1: AhR-Luc Human Antagonism (IC50)
pIC50: −log10 of the molar value.
VALUE KIND: pIC50

>>> print(df.to_string())
                                   compound        result
0  CC(CO)n1cnc2c(-c3ccc(Cl)cc3)nc(-c3cccnc3)cc2c1=O (stereo not drawn) [Example 5]        < 6.00
1  Cn1cc(-c2nc(-c3ccc(Cl)cc3)cc3c(=O)n([C@H]4CC[C@H](O)CC4)cnc23)cn1 [Example 10]        > 8.00
2  CC(O)Cn1cnc2c(-c3cnn(C)c3)nc(-c3ccc(Cl)cc3)cc2c1=O (stereo not drawn) [Example 13]        > 8.00
3  CC(CO)N1CNc2c(cc(-c3ccc(C(F)(F)F)cc3)nc2-c2cnn(C)c2)C1=O (stereo not drawn) [Example 59]        > 8.00
4  Cn1cc(-c2cc3c(=O)n([C@H]4CC[C@H](O)CC4)cnc3c(-c3cnn(C)c3)n2)cn1 [Example 9]  6.00 to 7.00
5  CC(CO)n1cnc2c(-c3cnn(C)c3)nc(-c3ccc(Cl)cc3)cc2c1=O (stereo not drawn) [Example 48]        > 8.00
6  CC(O)Cn1cnc2c(-c3cnn(C)c3)nc(-c3ccc(C(F)(F)F)cc3)cc2c1=O (stereo not drawn) [Example 12]        > 8.00
7  CC(CO)n1cnc2c(-c3cccnc3)nc(-c3ccc(OC(F)(F)F)cc3)cc2c1=O (stereo not drawn) [Example 49]        > 8.00
8  Cn1cc(-c2nc(-c3ccc(C(F)(F)F)cc3)cc3c(=O)n([C@H]4CC[C@H](O)CC4)cnc23)cn1 [Example 8]        > 8.00
